assay: DPTIP pharmacokinetics in mice; assay type: in vivo; settings: mouse, plasma, oral, 10 mg/kg; read-out: plasma half-life t½ (converted)
ENDPOINT_LABEL: half-life

Data request, read-out half-life, for COc1cc(-c2nc(-c3cccs3)c(-c3ccccc3)[nH]2)cc(OC)c1O
~30 min

---

test: DPTIP pharmacokinetics in mice; type: in vivo; details: mouse, plasma, oral, 10 mg/kg; read-out: clearance Clapp
ENDPOINT_LABEL: clearance (mL/min/kg)
Dear colleague, please return just the value in mL/min/kg, with no unit written.

Data request, read-out clearance, for COc1cc(-c2nc(-c3cccs3)c(-c3ccccc3)[nH]2)cc(OC)c1O
92
